- system: T1, 4H2725-AA
- T1 chain: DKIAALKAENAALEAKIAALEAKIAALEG
- measurement_description: two-hybrid library CCmax;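 also: natural log of median RNA to DNA barcode read ratio; higher means stronger binding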
- assay_setup: mean of both orientations

>  <binder>
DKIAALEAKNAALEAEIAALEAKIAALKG [4H2438-AA]

>  <interaction score>
1.32

$$$$
>  <binder>
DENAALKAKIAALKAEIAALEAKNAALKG [4H1864-AA]

>  <interaction score>
-0.938

$$$$
>  <binder>
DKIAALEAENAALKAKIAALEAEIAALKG [4H2274-AA]

>  <interaction score>
0.181

$$$$
>  <binder>
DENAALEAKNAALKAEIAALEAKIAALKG [4H1478-AA]

>  <interaction score>
1.78

$$$$
>  <binder>
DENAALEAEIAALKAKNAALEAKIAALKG [4H1142-AA]

>  <interaction score>
-1.15

$$$$
>  <binder>
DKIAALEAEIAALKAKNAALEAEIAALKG [4H2162-AA]

>  <interaction score>
-1.72

$$$$
>  <binder>
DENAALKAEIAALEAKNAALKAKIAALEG [4H1597-AA]

>  <interaction score>
0.827

$$$$
>  <binder>
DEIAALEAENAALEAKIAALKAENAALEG [4H171-AA]

>  <interaction score>
-1.12

$$$$
>  <binder>
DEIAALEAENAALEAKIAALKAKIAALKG [4H174-AA]

>  <interaction score>
1.47

$$$$
>  <binder>
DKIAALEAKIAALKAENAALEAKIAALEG [4H2389-AA]

>  <interaction score>
-0.942

$$$$
>  <binder>
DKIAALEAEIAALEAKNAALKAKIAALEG [4H2109-AA]

>  <interaction score>
0.465

$$$$
>  <binder>
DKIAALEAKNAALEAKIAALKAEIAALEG [4H2473-AA]

>  <interaction score>
0.607

$$$$
>  <binder>
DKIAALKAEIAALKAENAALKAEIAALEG [4H2649-AA]

>  <interaction score>
0.985

$$$$
>  <binder>
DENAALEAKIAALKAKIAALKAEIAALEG [4H1385-AA]

>  <interaction score>
0.284

$$$$
